- System: VDR homodimer (NR concentration 270 nM)
- Test: PBM binding z-score (relative to random genomic background probes); higher = stronger binding; sequences stand for … in GC…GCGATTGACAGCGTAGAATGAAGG
Reported metric: PBM binding z-score
Keep the answer to the number alone.

Which PBM binding z-score value is on record for "TGTGAAAGTTCAAAGGTAACGTAAGTATCCACAC" ?
3.9

Fill blank: measured PBM binding z-score of the sequence "CCTATTAGTTGACCATAATGGCAACCGAAGCTCG" is ____.
1.12

Need PBM binding z-score, item "ATCACTAGGTAAAGTTCAGTGAAAGATCGATAGA"
2.29

What does the data say about its PBM binding z-score? Entry: "TAGCCTAGGTCAGATCGGCCCAGTATACGCTATA"
-0.474

Given the sequence "TCATATAGGTAAAAGGTGTAAGTCGGTGTGGTAA" , what is its reported PBM binding z-score?
0.313

Fill in: PBM binding z-score of "TCAGACAGGTTAAGGTAACTCAGGTACGCAGTCG" is ___
0.557

====

- Test system: PPARg:RXRa DBDmut IVT, anti-RXR (DBD mutation: RXRa K156A/R161A, NR concentration 270 nM, RXRa partner concentration 90 nM)
- Test: PBM binding z-score (relative to random genomic background probes); higher = stronger binding; sequences stand for … in GC…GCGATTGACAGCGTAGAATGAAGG
// map PBM binding z-score to label using low (below 0.4), mid (0.4 to below 2), high (2 or more)

Tag the class for "ATCTCTAGCTAAAAGTTCAGTGAATCCCGAGGAT"
low

Could you place "CCTCGGAGGACACAAGGTCAGAGCTGTCCGCTTT" in its proper category? Many thanks.
mid

Any idea which band "CCTCGGAGGACAACAGGGGGTCAGAGCTGCCAGA" is in?
low

// return the class label for "CCTACTGGGCCATTCGGAGGTCATTGATCATATG"
high

Please report the category associated with "TTACCAAGGTGAAAGGTCCTTGATGCACGCCTTG" , nothing else.
high

Using the reported PBM binding z-score, which band applies to "ATCGAAAGGTCGAGGTGACTATAGAGAAAGGGAA" ?
mid

Looking at "ACTCAGAGGACAAAGGTCAGAGCTACGCCAGTGA" , which class would you pick?
mid

Field: class (PBM binding z-score) — entry: "TCTTGTAGATCAGCAGGCTAAGAAAGCTGGCCAA"
mid

Assign a bin to "AGAACGAGGCCAATGAGTTGATAGCACGGGTGGC"
mid

Entry "ATCTCCAGGTAAGACTCAGTTCAGTGAAGAACGC" belongs to which category?
low

Lab log: "CGAACTAGTTCATTGACAGGACAGTGAATAGTAA" — assign PBM binding z-score category
mid

Hey, which category is "CCAGACAGGTGAAAGGTAATTCAGTCTGGTACGC" in, do you know?
high

====

Task for the reader: assign each of the following sequences its reported PBM binding z-score.
- System: PPARg DBDmut IVT, anti-PPARg (DBD mutation: PPARg1 K132A/R137A, NR concentration 270 nM)
- Test: PBM binding z-score (relative to random genomic background probes); higher = stronger binding; sequences stand for … in GC…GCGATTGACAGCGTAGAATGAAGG
Lab note: record just the number, no unit beside it.

// query PBM binding z-score value for entry "GAAACGAGGGCATTCGAGTTGATAGCATGGCGAT"
0.0284

Value lookup for PBM binding z-score; key = "CCTACTGGGCCATTCGGAGGTCATTGATCATATG"
-0.182

Fill in: PBM binding z-score of "TCTCGGGGGACACGAAGGTCAGAGCTTTCCAGAG" is ___
5.36

Find the recorded PBM binding z-score belonging to "ATATGTAGATTAGCTGGGGTCATTCAGACTAGGC" and report it.
1.4

So what does the record say about PBM binding z-score for "ATCGAAAGGTCGTGAGGTGAGTATACAGAAAGGC" ?
1.25

If you can, please state the reported PBM binding z-score value of "CATACAGGGTCAGCCAGGCCAGAGTAGGGACGGC" .
0.692

====

- Test system: THRa homodimer (NR concentration 90 nM)
- Test: PBM binding z-score (relative to random genomic background probes); higher = stronger binding; sequences stand for … in GC…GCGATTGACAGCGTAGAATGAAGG
Reported metric: PBM binding z-score

Tell me the measured PBM binding z-score of "ATAGAAAGGTCGACGAGGTGAGTATACACCGTTT" , please.
0.52

Recorded PBM binding z-score of "TAGCCAAGGTCATGCGGGCCAGTATAGTGTCGGC" , please.
2.91

Fill blank: measured PBM binding z-score of the sequence "ACTATTAGTTGACTTAGGGCAACCGCTACGACGC" is ____.
0.625

Would you kindly share the measured PBM binding z-score for "GCTCTGAGGACAAGGTCAGAGCTTTGTCCGTAGA" ?
3.55

Looking for the measured PBM binding z-score of "GGAACGAGGGAAAGTTGATAGCAGAGTTTGATGG" , can you help?
-0.268

# input sequence: "CGAACGAGGGCATGAGTTCATAGCAAATGCCGAT" ; wanted: its PBM binding z-score
0.469

Recorded PBM binding z-score of "TGTCAAAGTTCAAACGTAACGTAAGTATCCACAC" , please.
-0.319

Query (sequence): "TGAATGAGGCTAAAGATCAGGGAACGTGGCGTCG" ; field requested: PBM binding z-score
-1.04

Give the measured PBM binding z-score of "GATGCAGGGTCAGCTAGAGGCCAGAGTATGGAAA" .
0.228

For the sequence "CCTCGGAGGACAACAGGAGGTCGGAGCTGCCAGA" , what PBM binding z-score is on record?
0.0235

I'd like to know its PBM binding z-score. The sequence in question is "GCGACTGGGGCAAAGCAGGTTACAATAAGGTTGG"
0.0569

Which PBM binding z-score is listed for "GCTGCTAGGTCAGGTTGGTGAGCTAACGGGTACG" ?
0.218

Recorded PBM binding z-score for "CATATAGGGTCAGCTAGGCCAGAGTAGGGACGGC" , please?
1.12

Param item = "AATACAGGGTCATCGTGGGCCAGAGTACGCACAG" ; retrieve measured PBM binding z-score.
1.46

Requested field: PBM binding z-score. Item: "CCAGACAGGTGAGAAGGTAACTCATCCTCGATTA"
0.345

Form field: reported PBM binding z-score of "ATCTCTAGGTAACAAGTTCAGCGAAAGAGAGGAC"
0.96

For the sequence shown here, "CGAACTAGGTCATTGACAGGACATTGAATAGTAA" , give the reported PBM binding z-score.
0.971

Using the record for "ACTTACTGGTCAACGAGGTTATAGCACGCGTATA" , report its PBM binding z-score.
1.22

Record request: PBM binding z-score value, item "CGAACCAGGTCATTGACAGGACAGTGAATAGTAA"
1.84

Please give the measured PBM binding z-score for this sequence: "CCGACCGGGGCATAAGGTTACCATAAGCCAGCCC"
1.66

Recorded PBM binding z-score of "TGAATGAGGTTGAAGATCAGGGAACGTGGCGTCG" , please.
-0.42

Looking for the measured PBM binding z-score of "ATACCAAGGTGATCGGGAGGTCGTTGATACTAAC" , can you help?
1.27

Would you kindly share the measured PBM binding z-score for "GATACAGGGTCAAGGCCAGAGTGCGCGTATTGAT" ?
1.27

Can you share its PBM binding z-score? I mean this sequence: "ATACCAATGTGATCGTGAGGTCGTTGATACTAAC"
2.24

Please look up its PBM binding z-score: "ACTAGCAGGCCAAGTTTGTGTCACTCAAACAAAG"
-0.316

For the sequence shown here, "AGAACGAGGGCAATGAGCTGATAGCACGGGTGGC" , give the reported PBM binding z-score.
-0.379

Fill blank: measured PBM binding z-score of the sequence "ATCGAAAGTTCGAGGTGAGTATAGAGAAAGGGAA" is ____.
0.158

Which PBM binding z-score value belongs to "TCTTGTAGATCAATAGAGGTTACGAAAGTGCGCT" ?
0.12

May I ask what PBM binding z-score has been recorded for "TTACCAAGGTGAAGGTAGTTGATCCCTCTGTAGA" ?
0.575

Would you mind telling me what PBM binding z-score value was observed for "AGAATGAGGTTATTGAGATCAGGGAATTGCGGTC" ?
1.01

Item under review: "CGAGACAGGTGAGAAGGTAACTCAGCCTCGATTA" . Reported PBM binding z-score?
-0.411

What value of PBM binding z-score has been recorded for this entry: "TGAATGAGGTAATAAGATCAGGGAACGTTGCAAA"
-0.205

Which PBM binding z-score value is on record for "AGAATTAGGTTAAGATCAGGGAAACAGAATACAT" ?
0.656

Consider the sequence shown here: "TGAATGAGGTTAAGGATCAGGGAACGTGGCGTCG" What is its recorded PBM binding z-score?
0.88

Can you look up the measured PBM binding z-score of "CGACCAAGGTCAAGGTCAGTGAAAGAGACTCGAA" for me?
2.79

// query PBM binding z-score value for entry "ATACCAAGGTGATAGTGAGGTCGTTGATACTAAC"
2.49

PBM binding z-score for "CATACAGGGTCAGCTAGGCCAGAGTGGGGACGGC" ?
1.52

Field request: PBM binding z-score | item: "CGAACTAGGTCAGGACAGGACAGTGAAGGATGAT"
1.28

Item under review: "CAAACTAGGTCACAGAGGTCAAAGTGCGTGCGTA" . Reported PBM binding z-score?
3.02

What value of PBM binding z-score has been recorded for this entry: "CGTCAAAGTTCAACTAAGGTAACGTAAAGCACGC"
1.93

# get_value(readout='PBM binding z-score', item= "ATATGTAGGTTTGCTGGGGTCATTCAGACTAGGC" )
3.2

Please report the recorded PBM binding z-score for "TAGCCTAGGTCACGCGGGCCAGTATAGTGTCGGC" .
1.61

Suppose we examine the sequence "TGTCAAAGTTCAAAGGTAACGTCAGTATCCACAC" ; what PBM binding z-score value has been reported?
-0.193

Please report the recorded PBM binding z-score for "TCTAGTTGGTCAAAGGTGACACACTCGAAATGCG" .
0.635

Which value of PBM binding z-score has been reported for "ATGGAAAGGTCGACGAGGTGAGTATACACCGTTT" in the records?
0.967

I would be grateful if you could share the reported PBM binding z-score for "ATATGTAGGTTAAGGGTCATACAGGTTGGTTCGC" .
1.48

Item "ATCGAAAGTTCGACGAGGTGAGTATACACCGTTT" has what recorded PBM binding z-score?
0.567

Please look up its PBM binding z-score: "TCTATGAGTTGAAGGGCAACCGACGAGTCCGTTT"
-0.405

Please look up its PBM binding z-score: "CAAACTAGGTCACCGGAGGGTCAAAGTCCGCATG"
2.21

// returns reported PBM binding z-score for input "ACTAGCAGGCCAAGGGTCACTGAAGATTAGTCCG"
-0.0402

Query (sequence): "ACAGACAGGTGATGAAGGTACCTCAGGCTATCAT" ; field requested: PBM binding z-score
-0.21
